testedTarget: HLA-DR4 (DRB1*0401) (Homo sapiens, UniProt P01903+P01911, A100K/A169T/F76Y/I96L/K127E/L162R/M171V/N62H/P40V/Q125Y/R42H/S133A/S149N/S66Y/V115G/V209L/W38E)
assayProcedure: HLA II/peptide competition binding assay, DR4
conditionInfo: ratio of IC50 of competitor peptide to IC50 of reference peptide; mean of at least two independent experiments; less than 100 = active
testReadout: Relative binding activity, DR4

# count of solved cases: 9
| substance | Relative binding activity, DR4 |
| --- | --- |
| E N W G A C D G G T G T K V R (ENWGACDGGTGTKVR) [MDK 89-103] | >1 812 |
| C R V P C N W K K E F G A D C (CRVPCNWKKEFGADC) [MDK 70-84] | 1 562 |
| E T I R V T K P C T P K T K A (ETIRVTKPCTPKTKA) [MDK 119-133] | 1 289 |
| R G F L L L T L L A L L A L T (RGFLLLTLLALLALT; MDK 4-18 peptide) | 136 |
| K D K V K K G G P G S E C A E (KDKVKKGGPGSECAE) [MDK 25-39] | >1 812 |
| T S A V A K K K D K V K K G G (TSAVAKKKDKVKKGG) [MDK 18-32] | >1 812 |
| C N W K K E F G A D C K Y K F (CNWKKEFGADCKYKF) [MDK 74-88] | >1 812 |
| M Q H R G F L L L T L L A L L (MQHRGFLLLTLLALL; MDK 1-15 peptide) | 226 |
| G T K V R Q G T L K K A R Y N (GTKVRQGTLKKARYN) [MDK 99-113] | >1 812 |

(Q) Fill in Relative binding activity, DR4 for record A E W A W G P C T P S S K D C (AEWAWGPCTPSSKDC) [MDK 38-52]
(A) 1 859

---

Examples of substances with documented Relative binding activity, DR11 follow.
testedTarget: HLA-DR11 (DRB1*1101) (Homo sapiens, UniProt P01903+P01911, A100R/A169T/A87E/I96F/K41T/L162R/M171V/P40S/Q125H/Q178H/Q39Y/Q99D/R42S/S66Y/T262R/V115G/W38E)
Type: binding
conditionInfo: ratio of IC50 of competitor peptide to IC50 of reference peptide; mean of at least two independent experiments; less than 100 = active

# count of solved cases: 4
| substance | testReadout | result |
| --- | --- | --- |
| C R V P C N W K K E F G A D C (CRVPCNWKKEFGADC) [MDK 70-84] | Relative binding activity, DR11 | >1 086 |
| E N W G A C D G G T G T K V R (ENWGACDGGTGTKVR) [MDK 89-103] | Relative binding activity, DR11 | >1 086 |
| C K Y K F E N W G A C D G G T (CKYKFENWGACDGGT) [MDK 84-98] | Relative binding activity, DR11 | >1 086 |
| C N W K K E F G A D C K Y K F (CNWKKEFGADCKYKF) [MDK 74-88] | Relative binding activity, DR11 | 1 231 |

(Q) Fill in Relative binding activity, DR11 for record K D K V K K G G P G S E C A E (KDKVKKGGPGSECAE) [MDK 25-39]
(A) >1 086

(Q) Fill in Relative binding activity, DR11 for record T S A V A K K K D K V K K G G (TSAVAKKKDKVKKGG) [MDK 18-32]
(A) >1 086

(Q) Fill in Relative binding activity, DR11 for record G T L K K A R Y N A Q C Q E T (GTLKKARYNAQCQET) [MDK 105-119]
(A) 1 008

(Q) Fill in Relative binding activity, DR11 for record G T K V R Q G T L K K A R Y N (GTKVRQGTLKKARYN) [MDK 99-113]
(A) >1 086

---

testedTarget: HLA-DR15 (DRB1*1501) (Homo sapiens, UniProt P01903+P01911)
assayProcedure: HLA II/peptide competition binding assay, DR15
conditionInfo: ratio of IC50 of competitor peptide to IC50 of reference peptide; mean of at least two independent experiments; less than 100 = active
Examples of substances with documented Relative binding activity, DR15 follow.

# count of solved cases: 2
| substance | testedTarget | Relative binding activity, DR15 |
| --- | --- | --- |
| G T L K K A R Y N A Q C Q E T (GTLKKARYNAQCQET) [MDK 105-119] | HLA-DR15 (DRB1*1501) (Homo sapiens, UniProt P01903+P01911) | 225 |
| A R Y N A Q C Q E T I R V T K (ARYNAQCQETIRVTK; MDK 110-124 peptide) | HLA-DR15 (DRB1*1501) (Homo sapiens, UniProt P01903+P01911) | >529 |

(Q) Fill in Relative binding activity, DR15 for record T S A V A K K K D K V K K G G (TSAVAKKKDKVKKGG) [MDK 18-32]
(A) >529

(Q) Fill in Relative binding activity, DR15 for record K D K V K K G G P G S E C A E (KDKVKKGGPGSECAE) [MDK 25-39]
(A) >529

---

testedTarget: HLA-DRB5 (DRB5*0101) (Homo sapiens, UniProt P01903+Q30154)
assayProcedure: HLA II/peptide competition binding assay, DRB5
conditionInfo: ratio of IC50 of competitor peptide to IC50 of reference peptide; mean of at least two independent experiments; less than 100 = active
Examples of substances with documented Relative binding activity, DRB5 follow.

| substance | Relative binding activity, DRB5 |
| --- | --- |
| T S A V A K K K D K V K K G G (TSAVAKKKDKVKKGG) [MDK 18-32] | >2 100 |
| C G V G F R E G T C G A Q T Q (CGVGFREGTCGAQTQ) [MDK 52-64] | >2 100 |
| G T L K K A R Y N A Q C Q E T (GTLKKARYNAQCQET) [MDK 105-119] | >2 100 |

Pending substance:
(Q) Fill in Relative binding activity, DRB5 for record K D K V K K G G P G S E C A E (KDKVKKGGPGSECAE) [MDK 25-39]
(A) >2 100

---

testedTarget: HLA-DR7 (DRB1*0701) (Homo sapiens, UniProt P01903+P01911, A100R/A102G/A103Q/D57E/D86V/E43K/F76Y/K127E/L162R/M171V/P40G/Q125H/Q99D/R33Q/R42Y/R54Q/S133A/S66F/T210M/V115G/Y107V/Y59L/Y89S)
assayProcedure: HLA II/peptide competition binding assay, DR7
conditionInfo: ratio of IC50 of competitor peptide to IC50 of reference peptide; mean of at least two independent experiments; less than 100 = active
Examples of substances with documented Relative binding activity, DR7 follow.

# count of solved cases: 5
| substance | result |
| --- | --- |
| C N W K K E F G A D C K Y K F (CNWKKEFGADCKYKF) [MDK 74-88] | >2 479 |
| C K Y K F E N W G A C D G G T (CKYKFENWGACDGGT) [MDK 84-98] | >2 479 |
| A E W A W G P C T P S S K D C (AEWAWGPCTPSSKDC) [MDK 38-52] | >2 479 |
| K D K V K K G G P G S E C A E (KDKVKKGGPGSECAE) [MDK 25-39] | >2 479 |
| G T L K K A R Y N A Q C Q E T (GTLKKARYNAQCQET) [MDK 105-119] | >2 479 |

(Q) Fill in Relative binding activity, DR7 for record A R Y N A Q C Q E T I R V T K (ARYNAQCQETIRVTK; MDK 110-124 peptide)
(A) 158

(Q) Fill in Relative binding activity, DR7 for record T S A V A K K K D K V K K G G (TSAVAKKKDKVKKGG) [MDK 18-32]
(A) >2 479

(Q) Fill in Relative binding activity, DR7 for record K E F G A D C K Y K F E N W G (KEFGADCKYKFENWG) [MDK 78-92]
(A) >2 479

(Q) Fill in Relative binding activity, DR7 for record C G V G F R E G T C G A Q T Q (CGVGFREGTCGAQTQ) [MDK 52-64]
(A) >2 479

(Q) Fill in Relative binding activity, DR7 for record Q T Q R I R C R V P C N W K K (QTQRIRCRVPCNWKK) [MDK 64-78]
(A) 2 066

(Q) Fill in Relative binding activity, DR7 for record G T K V R Q G T L K K A R Y N (GTKVRQGTLKKARYN) [MDK 99-113]
(A) >2 479

(Q) Fill in Relative binding activity, DR7 for record E N W G A C D G G T G T K V R (ENWGACDGGTGTKVR) [MDK 89-103]
(A) >2 479

(Q) Fill in Relative binding activity, DR7 for record C R V P C N W K K E F G A D C (CRVPCNWKKEFGADC) [MDK 70-84]
(A) >2 479
